Reported kinase still bound, per cent of control is given for each of the following molecules.
tested on: LRRK2 (human), Q5S007 [G2019S]; experiment: KINOMEscan competition binding; conditions: compound 10.0 µM
Sequence (Q5S007 whole entry G2019S, looked up): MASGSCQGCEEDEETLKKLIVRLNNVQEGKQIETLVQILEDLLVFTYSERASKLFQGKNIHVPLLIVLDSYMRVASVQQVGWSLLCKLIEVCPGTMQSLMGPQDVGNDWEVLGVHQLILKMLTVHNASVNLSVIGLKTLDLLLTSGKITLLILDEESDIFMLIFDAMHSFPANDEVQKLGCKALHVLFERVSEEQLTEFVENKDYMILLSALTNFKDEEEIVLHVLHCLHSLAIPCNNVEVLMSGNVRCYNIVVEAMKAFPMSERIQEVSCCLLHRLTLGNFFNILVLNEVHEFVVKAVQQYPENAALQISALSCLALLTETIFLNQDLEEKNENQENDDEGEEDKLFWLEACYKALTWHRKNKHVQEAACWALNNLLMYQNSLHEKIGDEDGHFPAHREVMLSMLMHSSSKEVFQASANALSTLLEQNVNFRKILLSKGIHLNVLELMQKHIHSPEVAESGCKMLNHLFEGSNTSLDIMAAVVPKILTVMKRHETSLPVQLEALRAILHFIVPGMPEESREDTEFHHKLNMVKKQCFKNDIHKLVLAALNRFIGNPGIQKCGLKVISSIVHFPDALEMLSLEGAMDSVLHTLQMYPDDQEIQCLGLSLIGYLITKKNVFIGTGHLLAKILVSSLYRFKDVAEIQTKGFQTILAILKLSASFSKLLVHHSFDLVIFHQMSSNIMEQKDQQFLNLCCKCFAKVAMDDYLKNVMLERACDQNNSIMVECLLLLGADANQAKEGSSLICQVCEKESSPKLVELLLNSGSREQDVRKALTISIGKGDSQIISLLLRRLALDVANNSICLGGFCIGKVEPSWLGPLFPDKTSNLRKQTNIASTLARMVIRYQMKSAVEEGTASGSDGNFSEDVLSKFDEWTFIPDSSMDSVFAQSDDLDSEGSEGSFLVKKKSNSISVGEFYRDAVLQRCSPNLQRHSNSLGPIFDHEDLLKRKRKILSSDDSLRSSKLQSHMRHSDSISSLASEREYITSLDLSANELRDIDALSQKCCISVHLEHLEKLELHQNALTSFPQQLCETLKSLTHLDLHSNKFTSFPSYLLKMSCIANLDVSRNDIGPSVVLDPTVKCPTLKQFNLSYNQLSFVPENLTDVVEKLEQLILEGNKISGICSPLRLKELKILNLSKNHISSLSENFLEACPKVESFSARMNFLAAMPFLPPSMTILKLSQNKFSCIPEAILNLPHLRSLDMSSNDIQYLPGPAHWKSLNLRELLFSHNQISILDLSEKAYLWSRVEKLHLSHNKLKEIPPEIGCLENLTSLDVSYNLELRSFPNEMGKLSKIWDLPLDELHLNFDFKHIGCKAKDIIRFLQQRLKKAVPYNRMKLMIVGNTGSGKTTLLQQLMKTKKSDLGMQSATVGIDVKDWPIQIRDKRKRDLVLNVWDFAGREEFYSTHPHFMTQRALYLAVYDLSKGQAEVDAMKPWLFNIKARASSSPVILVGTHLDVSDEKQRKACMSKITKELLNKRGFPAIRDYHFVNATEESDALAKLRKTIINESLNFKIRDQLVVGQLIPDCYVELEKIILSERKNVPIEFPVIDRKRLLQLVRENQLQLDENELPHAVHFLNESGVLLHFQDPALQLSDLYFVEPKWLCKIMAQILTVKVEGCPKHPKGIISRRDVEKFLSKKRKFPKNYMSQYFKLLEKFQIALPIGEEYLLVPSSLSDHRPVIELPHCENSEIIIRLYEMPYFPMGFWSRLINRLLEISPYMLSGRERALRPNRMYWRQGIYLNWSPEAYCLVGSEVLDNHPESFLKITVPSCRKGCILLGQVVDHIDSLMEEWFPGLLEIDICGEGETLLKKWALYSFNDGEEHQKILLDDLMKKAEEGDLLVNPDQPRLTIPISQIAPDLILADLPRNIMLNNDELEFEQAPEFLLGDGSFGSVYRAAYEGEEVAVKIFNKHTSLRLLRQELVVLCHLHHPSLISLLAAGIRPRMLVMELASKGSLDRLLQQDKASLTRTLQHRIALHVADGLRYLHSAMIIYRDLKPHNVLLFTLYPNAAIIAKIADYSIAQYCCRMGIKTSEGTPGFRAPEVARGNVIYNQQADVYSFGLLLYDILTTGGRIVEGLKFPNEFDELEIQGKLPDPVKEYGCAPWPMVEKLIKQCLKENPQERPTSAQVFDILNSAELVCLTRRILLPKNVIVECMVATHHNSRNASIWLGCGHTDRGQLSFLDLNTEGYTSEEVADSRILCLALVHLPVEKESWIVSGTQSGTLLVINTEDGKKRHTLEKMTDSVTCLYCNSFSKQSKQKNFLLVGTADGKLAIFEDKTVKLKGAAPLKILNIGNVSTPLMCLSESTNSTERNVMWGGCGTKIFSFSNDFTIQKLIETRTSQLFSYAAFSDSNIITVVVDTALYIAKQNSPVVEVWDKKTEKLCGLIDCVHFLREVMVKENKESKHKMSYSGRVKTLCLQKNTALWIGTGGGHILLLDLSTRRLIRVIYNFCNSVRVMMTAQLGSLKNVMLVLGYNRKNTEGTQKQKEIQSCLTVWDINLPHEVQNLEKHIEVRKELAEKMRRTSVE
I only need the number, in %, no unit after it.

These recorded examples may help you get a feel for the data.
| Smiles input | kinase still bound, per cent of control / % |
| --- | --- |
| COc1cc(C(=O)N2CCC(N3CCN(C)CC3)CC2)ccc1Nc1ncc2c(n1)N(C)c1ccccc1C(=O)N2C | 5 |
| COc1cc2ncnc(Nc3cccc(Cl)c3)c2cc1OC | 67 |
| N#C/C(=C1/Nc2ccccc2S1)c1ccnc(NCCc2cccnc2)n1 | 74 |

Input: // query kinase still bound, per cent of control value for entry "O=C(NOC[C@H](O)CO)c1ccc(F)c(F)c1Nc1ccc(I)cc1F"
Output: 100

Input: Fill in: kinase still bound, per cent of control of "O=C(NC1CC1)c1cccc(-c2ccc3c(NC(=O)C4CC4)n[nH]c3c2)c1" is ___
Output: 87

Input: I would be grateful if you could share the reported kinase still bound, per cent of control for "Cc1cc([C@@H](C)Nc2ccccc2C(=O)O)c2nc(N3CCOCC3)cc(=O)n2c1" .
Output: 100

Input: kinase still bound, per cent of control for "O=c1cc(N2CCOCC2)oc2c(-c3cccc4c3sc3ccccc34)cccc12" ?
Output: 100

Input: Recorded kinase still bound, per cent of control for "COc1cc2c(Nc3ccc(NC(=O)c4ccccc4)cc3)ncnc2cc1OCCCN1CCOCC1" , please?
Output: 100

====

tested on: KIT (human), P10721 [D816H]; assay: KINOMEscan competition binding; settings: compound 10.0 µM
Sequence (P10721 whole entry D816H, looked up): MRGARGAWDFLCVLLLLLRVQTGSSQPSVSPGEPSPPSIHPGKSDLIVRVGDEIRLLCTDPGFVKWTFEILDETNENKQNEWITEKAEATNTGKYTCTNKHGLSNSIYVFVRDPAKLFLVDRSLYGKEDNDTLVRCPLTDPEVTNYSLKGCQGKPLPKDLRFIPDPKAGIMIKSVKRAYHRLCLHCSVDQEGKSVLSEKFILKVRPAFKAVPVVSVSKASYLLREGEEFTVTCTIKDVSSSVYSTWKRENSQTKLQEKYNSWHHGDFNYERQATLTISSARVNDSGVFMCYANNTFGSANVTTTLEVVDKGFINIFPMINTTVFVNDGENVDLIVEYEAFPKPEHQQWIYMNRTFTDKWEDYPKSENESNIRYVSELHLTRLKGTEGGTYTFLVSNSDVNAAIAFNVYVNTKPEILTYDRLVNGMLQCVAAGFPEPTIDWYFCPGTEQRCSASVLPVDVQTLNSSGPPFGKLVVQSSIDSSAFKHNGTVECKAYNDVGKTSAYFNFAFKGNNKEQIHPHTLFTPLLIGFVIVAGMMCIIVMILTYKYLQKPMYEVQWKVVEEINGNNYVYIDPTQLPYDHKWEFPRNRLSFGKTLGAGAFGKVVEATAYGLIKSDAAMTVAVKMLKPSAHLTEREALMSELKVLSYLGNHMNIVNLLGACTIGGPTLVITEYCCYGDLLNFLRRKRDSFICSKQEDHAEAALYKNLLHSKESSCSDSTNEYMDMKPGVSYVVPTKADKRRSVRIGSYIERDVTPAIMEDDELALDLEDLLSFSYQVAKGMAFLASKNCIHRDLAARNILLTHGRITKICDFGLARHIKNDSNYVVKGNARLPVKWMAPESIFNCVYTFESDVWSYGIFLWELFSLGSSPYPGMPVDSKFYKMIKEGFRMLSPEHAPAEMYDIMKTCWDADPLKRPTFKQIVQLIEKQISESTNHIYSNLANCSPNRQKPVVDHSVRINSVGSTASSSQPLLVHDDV
Consider the reported kinase still bound, per cent of control of an entry and match it to a band in band A = under 40%, band B = from 40% up to 90%, band C = 90% and over

| Smiles input | Category |
| --- | --- |
| CCCS(=O)(=O)Nc1ccc(F)c(C(=O)c2c[nH]c3ncc(-c4ccc(Cl)cc4)cc23)c1F | band C |
| COc1cc2ncnc(-n3nc(-c4ccccn4)nc3N)c2cc1OC | band A |
| CCN1CCN(Cc2ccc(NC(=O)c3ccc(C)c(/C=C/c4cnc5[nH]ccc5c4OC)c3)cc2C(F)(F)F)CC1 | band A |
| C=CC(=O)Nc1cc(NC(=O)c2ccc(C)c(NC(=O)c3ccno3)c2)cc(C(F)(F)F)c1 | band B |

Input: Hi there! Could you help me figure out the category for "CCN1CCN(Cc2ccc(Nc3ncc4c(n3)N(C)c3ccccc3C(=O)N4C)cc2C(F)(F)F)CC1" please?
Output: band B

Input: Which kinase still bound, per cent of control category applies to "COCC(=O)NC/C=C/c1ccc2ncnc(Nc3ccc(Oc4ccc(C)nc4)c(C)c3)c2c1" here?
Output: band C

====

target: PRKD2 (human); experiment: KINOMEscan competition binding; conditions: compound 10.0 µM
Parameter: kinase still bound, per cent of control (%)
API: value field is a number in %; no unit string.

Answered cases to consult:
| Smiles input | Quantity unit | kinase still bound, per cent of control |
| --- | --- | --- |
| N#Cc1cc(-c2ccnc(Nc3ccc(-n4cnc(-c5cccnc5)n4)cc3)n2)cc(N2CCOCC2)c1 | % | 93 |
| COc1cc2c(Nc3ccc(NC(=O)c4ccccc4)cc3)ncnc2cc1OCCCN1CCOCC1 | % | 100 |
| CCN(CCO)CCCOc1ccc2c(Nc3cc(CC(=O)Nc4cccc(F)c4)[nH]n3)ncnc2c1 | % | 80 |
| Cc1cn(-c2cc(C(=O)Nc3ccc(C)c(NC(=O)c4ccno4)c3)cc(C(F)(F)F)c2)cn1 | % | 100 |

Input: Find the recorded kinase still bound, per cent of control belonging to "CC(=O)c1c(C)c2cnc(Nc3ccc(N4CCNCC4)cn3)nc2n(C2CCCC2)c1=O" and report it.
Output: 0.7

Where these numbers come from: the kinase profiling compilation of Christmann-Franck et al. (2016)
